meta.source: patent US20150087627A1

The reader will find reported pIC50 values listed item by item below.
Biological target: PI3K β (p110β/p85α) (Homo sapiens)
Construct: purchased Upstate / Millipore Corporation
Assay: PI 3-Kinase (human) HTRF assay, PI3K β
Assay type: biochemical
Details: read-out: PI3K β IC50
pIC50: −log10 of the molar value.

Consider the reported pIC50 for these compounds:
[[record]]
structure = "Cc1cc(-c2ccc3ncc(N4CC(N5CCOCC5)C4)nc3c2)cc2nc(N)oc12"
measuredvalue = "> 5.00"

[[record]]
structure = "Cc1ncc(-c2ccc3ncc(C(=O)N4C5CCC4COC5)n3c2)c2cn[nH]c12"
measuredvalue = "< 5.00"

[[record]]
structure = "CC(=O)Nc1ncc(-c2ccc3oc(N)nc3c2)s1"
measuredvalue = "< 5.00"

[[record]]
structure = "Cc1cc(-c2ccc3ncc(C(=O)N4CCOCC4)n3c2)cc2nc(N)oc12"
measuredvalue = "> 5.00"

[[record]]
structure = "CCN(CC)CC(=O)N1CCN(c2cnc3ccc(-c4ccc5oc(N)nc5c4)cc3n2)CC1"
measuredvalue = "> 5.00"

[[record]]
structure = "CC(=O)Nc1nc2cc(-c3ccc4nc(N)oc4c3)ccc2s1"
measuredvalue = "> 7.00"


Turning now to a further compound:
Give the measured pIC50 of `Nc1nc2cc(-c3ccc4ncc(N5CC(N6CCOCC6)C5)nc4c3)cc(F)c2o1` .
> 6.00

###

Biological target: PI3K β (p110β/p85α) (Homo sapiens, UniProt P42338)
Construct: purchased Upstate / Millipore Corporation
Sequence (P42338 whole entry): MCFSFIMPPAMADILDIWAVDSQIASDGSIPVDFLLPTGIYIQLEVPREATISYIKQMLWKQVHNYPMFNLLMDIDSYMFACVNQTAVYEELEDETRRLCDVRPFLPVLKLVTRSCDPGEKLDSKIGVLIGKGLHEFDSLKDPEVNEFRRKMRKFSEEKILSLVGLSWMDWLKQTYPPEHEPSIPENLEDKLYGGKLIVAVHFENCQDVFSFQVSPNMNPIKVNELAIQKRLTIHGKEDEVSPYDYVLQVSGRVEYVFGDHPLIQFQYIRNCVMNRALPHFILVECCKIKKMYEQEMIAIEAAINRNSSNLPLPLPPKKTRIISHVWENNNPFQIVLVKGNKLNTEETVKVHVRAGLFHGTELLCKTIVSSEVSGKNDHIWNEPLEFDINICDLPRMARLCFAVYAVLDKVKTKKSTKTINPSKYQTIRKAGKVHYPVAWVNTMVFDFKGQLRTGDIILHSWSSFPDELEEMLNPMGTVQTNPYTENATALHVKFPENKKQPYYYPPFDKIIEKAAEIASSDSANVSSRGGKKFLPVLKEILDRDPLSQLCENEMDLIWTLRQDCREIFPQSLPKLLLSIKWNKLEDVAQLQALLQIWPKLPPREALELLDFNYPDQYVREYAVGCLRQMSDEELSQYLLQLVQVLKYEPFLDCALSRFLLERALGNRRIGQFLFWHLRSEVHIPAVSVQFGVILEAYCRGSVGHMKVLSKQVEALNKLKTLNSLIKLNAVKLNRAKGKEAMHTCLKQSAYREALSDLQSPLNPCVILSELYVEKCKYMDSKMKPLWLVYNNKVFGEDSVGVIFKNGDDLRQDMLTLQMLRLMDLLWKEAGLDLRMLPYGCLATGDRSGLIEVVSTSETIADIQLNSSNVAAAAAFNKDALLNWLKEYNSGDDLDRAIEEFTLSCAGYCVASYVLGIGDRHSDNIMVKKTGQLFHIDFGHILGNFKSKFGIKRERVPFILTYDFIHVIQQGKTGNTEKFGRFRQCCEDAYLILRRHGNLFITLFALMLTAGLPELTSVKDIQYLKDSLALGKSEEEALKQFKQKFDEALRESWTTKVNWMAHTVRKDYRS
Sequence (P27986 whole entry partner): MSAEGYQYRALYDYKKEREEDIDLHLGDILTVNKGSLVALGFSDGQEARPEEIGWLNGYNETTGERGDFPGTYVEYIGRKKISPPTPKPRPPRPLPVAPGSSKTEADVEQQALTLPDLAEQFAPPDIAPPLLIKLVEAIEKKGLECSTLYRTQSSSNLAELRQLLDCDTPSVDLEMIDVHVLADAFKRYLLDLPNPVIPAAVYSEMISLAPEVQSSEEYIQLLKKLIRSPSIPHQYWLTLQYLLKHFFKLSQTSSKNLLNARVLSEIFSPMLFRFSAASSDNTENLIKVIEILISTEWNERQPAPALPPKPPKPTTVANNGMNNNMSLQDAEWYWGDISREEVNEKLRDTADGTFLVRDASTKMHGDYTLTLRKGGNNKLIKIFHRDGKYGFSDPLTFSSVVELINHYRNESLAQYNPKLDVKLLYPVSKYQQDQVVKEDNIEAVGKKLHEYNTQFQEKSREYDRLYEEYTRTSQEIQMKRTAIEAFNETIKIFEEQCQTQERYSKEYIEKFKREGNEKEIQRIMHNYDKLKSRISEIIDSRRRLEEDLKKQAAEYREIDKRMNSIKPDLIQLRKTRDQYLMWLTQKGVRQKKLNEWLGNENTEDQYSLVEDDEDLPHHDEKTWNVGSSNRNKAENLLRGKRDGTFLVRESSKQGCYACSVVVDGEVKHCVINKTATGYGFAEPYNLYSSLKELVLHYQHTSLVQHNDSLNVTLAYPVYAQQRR
Assay: PI 3-Kinase (human) HTRF assay, PI3K β
Type: biochemical
Details: read-out: PI3K β IC50
pIC50: −log10 of the molar value.
measuredQuantity: pIC50

Some entries whose results are on file:
[[record]]
structure = "Nc1nc2cc(-c3ccc4nc(N)sc4c3)cc(F)c2o1"
systemtested = "PI3K β (p110β/p85α) (Homo sapiens, UniProt P42338)"
measuredquantity = "pIC50"
measuredvalue = "> 7.00"

[[record]]
structure = "CN1CCC(n2cnc3ccc(-c4cnc(Cl)c(NS(C)(=O)=O)c4)cc3c2=O)CC1"
systemtested = "PI3K β (p110β/p85α) (Homo sapiens, UniProt P42338)"
measuredquantity = "pIC50"
measuredvalue = "> 5.00"

[[record]]
structure = "COc1ncc(-c2ccc3ncc(C(=O)N4CCOCC4)n3c2)cc1NS(=O)(=O)c1ccc(F)cc1"
systemtested = "PI3K β (p110β/p85α) (Homo sapiens, UniProt P42338)"
measuredquantity = "pIC50"
measuredvalue = "> 6.00"

[[record]]
structure = "Nc1nc2cc(-c3ccc4ncn(CCN5CCOCC5)c(=O)c4c3)ccc2o1"
systemtested = "PI3K β (p110β/p85α) (Homo sapiens, UniProt P42338)"
measuredquantity = "pIC50"
measuredvalue = "> 5.00"

[[record]]
structure = "COc1ncc(-c2ccc3ncc(C(=O)N4CCOCC4)n3c2)c2cn[nH]c12"
systemtested = "PI3K β (p110β/p85α) (Homo sapiens, UniProt P42338)"
measuredquantity = "pIC50"
measuredvalue = "< 5.00"

[[record]]
structure = "CCN1CCN(C(=O)c2cnc3ccc(-c4ccc5oc(N)nc5c4)cn23)CC1"
systemtested = "PI3K β (p110β/p85α) (Homo sapiens, UniProt P42338)"
measuredquantity = "pIC50"
measuredvalue = "< 5.00"

[[record]]
structure = "Nc1nc2cc(-c3cnc4ccc(C(=O)N5CCOCC5)cn34)ccc2o1"
systemtested = "PI3K β (p110β/p85α) (Homo sapiens, UniProt P42338)"
measuredquantity = "pIC50"
measuredvalue = "< 5.00"

[[record]]
structure = "Nc1nc2cc(-c3ccc4ncc(N5CCN(CC(F)(F)F)CC5)nc4c3)ccc2o1"
systemtested = "PI3K β (p110β/p85α) (Homo sapiens, UniProt P42338)"
measuredquantity = "pIC50"
measuredvalue = "< 5.00"

[[record]]
structure = "CN1CCN(C(=O)c2cnn3ccc(-c4ccc5oc(N)nc5c4)cc23)CC1"
systemtested = "PI3K β (p110β/p85α) (Homo sapiens, UniProt P42338)"
measuredquantity = "pIC50"
measuredvalue = "> 5.00"

[[record]]
structure = "CC(C)N1CCC(n2cnc3ccc(-c4ccc5oc(N)nc5c4)cc3c2=O)CC1"
systemtested = "PI3K β (p110β/p85α) (Homo sapiens, UniProt P42338)"
measuredquantity = "pIC50"
measuredvalue = "> 5.00"


Endpoint output: pIC50 of `Nc1nc2cc(-c3cn4c(C(=O)N5CCOCC5)cnc4cn3)ccc2o1` . Value?
< 5.00

// lookup pIC50 for `Nc1nc2cc(-c3ccc4ncn(CCN5CCCC5)c(=O)c4c3)ccc2o1`
> 5.00

What does the data say about its pIC50? Entry: `C[C@H]1CN(c2cnc3ccc(-c4cccc5c(N)noc45)cc3n2)CCN1`
< 5.00

Sample `Nc1nc2cc(-c3ccc4ncnc(NC5CCN(C(=O)C6CC6)CC5)c4c3)ccc2o1` — what was its pIC50?
> 5.00

Recorded pIC50 for `Nc1nc2ccc(-c3ccc4ncc(C(=O)N5CCOCC5)n4c3)cc2s1` , please?
< 5.00

###

Target: PI3K γ (p110γ) (Homo sapiens, UniProt P48736)
Construct: purchased Upstate / Millipore Corporation
Sequence (P48736 whole entry): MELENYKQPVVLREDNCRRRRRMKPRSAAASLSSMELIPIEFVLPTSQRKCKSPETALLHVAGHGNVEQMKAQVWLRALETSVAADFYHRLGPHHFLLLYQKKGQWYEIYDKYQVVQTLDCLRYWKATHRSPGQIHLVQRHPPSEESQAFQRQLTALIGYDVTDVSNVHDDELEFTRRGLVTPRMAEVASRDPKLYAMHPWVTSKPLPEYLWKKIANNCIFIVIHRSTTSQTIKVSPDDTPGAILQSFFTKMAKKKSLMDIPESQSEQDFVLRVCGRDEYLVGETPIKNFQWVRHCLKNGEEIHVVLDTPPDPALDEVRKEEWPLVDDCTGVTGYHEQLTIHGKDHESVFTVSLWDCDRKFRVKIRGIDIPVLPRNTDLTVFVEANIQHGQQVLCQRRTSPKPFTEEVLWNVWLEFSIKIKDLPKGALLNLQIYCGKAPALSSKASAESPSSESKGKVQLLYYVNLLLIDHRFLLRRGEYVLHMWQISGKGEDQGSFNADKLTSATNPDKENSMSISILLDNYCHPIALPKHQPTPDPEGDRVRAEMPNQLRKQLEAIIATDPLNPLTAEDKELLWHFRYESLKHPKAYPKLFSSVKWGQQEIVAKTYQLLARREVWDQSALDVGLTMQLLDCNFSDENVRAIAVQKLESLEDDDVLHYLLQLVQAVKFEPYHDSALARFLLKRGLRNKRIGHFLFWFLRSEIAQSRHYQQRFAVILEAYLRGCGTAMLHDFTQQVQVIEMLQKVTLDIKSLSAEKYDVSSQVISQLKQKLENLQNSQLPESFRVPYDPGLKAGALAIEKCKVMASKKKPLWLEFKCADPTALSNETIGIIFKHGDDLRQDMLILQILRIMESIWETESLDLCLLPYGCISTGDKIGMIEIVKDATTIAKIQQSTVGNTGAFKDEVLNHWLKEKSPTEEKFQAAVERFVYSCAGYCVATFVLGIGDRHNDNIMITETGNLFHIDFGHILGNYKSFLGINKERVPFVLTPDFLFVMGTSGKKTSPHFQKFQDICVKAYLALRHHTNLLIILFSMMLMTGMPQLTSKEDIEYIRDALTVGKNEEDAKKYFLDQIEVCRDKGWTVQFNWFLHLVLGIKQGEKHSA
Experiment: PI 3-Kinase (human) HTRF assay, PI3K γ
Assay type: biochemical
Details: read-out: PI3K γ IC50
pIC50: −log10 of the molar value.
molecules and their reported pIC50

For the molecule `Nc1nc2cc(-c3ccc4ncc(-c5ccnc(N6CCOCC6)c5)nc4c3)ccc2o1` , what pIC50 is on record?
< 5.00

Returns the measured pIC50 for the input molecule. Input: `Nc1nc2cc(-c3cnc4ncc(-c5ccncc5)n4c3)ccc2o1`
< 5.00

Report pIC50 for `Nc1nc2cc(-c3ccc4ncn(C5CCOCC5)c4c3)ccc2o1` please.
< 5.00

pIC50 lookup needed for `C[C@H]1CN(C(=O)C2CN(c3cnc4ccc(-c5ccc6oc(N)nc6c5)cc4n3)C2)CCN1` , thanks.
> 6.00

May I ask what pIC50 has been recorded for `CN1CCC(Oc2ncnc3ccc(-c4ccc5oc(N)nc5c4)cc23)CC1` ?
> 6.00

Which value of pIC50 has been reported for `Cc1ncc(-c2ccc3ncc(C(=O)N4CCOCC4)n3c2)c2cn[nH]c12` in the records?
< 5.00

Fill in: pIC50 of `CC(=O)N1CCN(c2cnc3ccc(-c4ccc5oc(N)nc5c4)cc3n2)CC1` is ___
> 7.00

Endpoint output: pIC50 of `Nc1ccc2cc(-c3ccc4nccc(-c5ccncc5)c4c3)ccc2n1` . Value?
> 6.00

Requested field: pIC50. Item: `Nc1nc2cc(-c3ccc4ncc(NCCCN5CCOCC5)nc4c3)ccc2o1`
> 6.00

Entry under review: `Nc1nc2cc(-c3ccc4ncc(N5CC(N6CCOCC6)C5)nc4c3)c(Cl)cc2o1` . Reported pIC50?
< 5.00

###

Entries and their pIC50 values follow.
System: T47D
Assay: T47D proliferation
Assay type: cell-based
Conditions: Homo sapiens; T47D cell line
pIC50: −log10 of the molar value.

Example compounds with recorded pIC50:
[[record]]
structure = "Cc1cn(-c2cnc3ccc(-c4ccc5oc(N)nc5c4)cc3n2)cn1"
measuredquantity = "pIC50"
measuredvalue = "< 5.00"

[[record]]
structure = "Nc1nc2cc(-c3ccc4ncc(-c5ccc6nc(N)oc6c5)n4c3)ccc2o1"
measuredquantity = "pIC50"
measuredvalue = "> 5.00"

[[record]]
structure = "CN1CCC(Nc2ncnc3ccc(-c4ccc5oc(N)nc5c4)cc23)CC1"
measuredquantity = "pIC50"
measuredvalue = "> 5.00"

[[record]]
structure = "CN1CCN(c2cnc3ccc(-c4ccc5oc(N)nc5c4)cc3n2)CC1"
measuredquantity = "pIC50"
measuredvalue = "> 5.00"

[[record]]
structure = "Nc1nc2cc(-c3ccc4ncc(N5CCOCC5)nc4c3)ccc2o1"
measuredquantity = "pIC50"
measuredvalue = "> 5.00"


Could you now look at the following compound, please?
Notebook: pull reported pIC50 for T47D, entry `Cn1cc(-c2cnc3ccc(-c4ccc5oc(N)nc5c4)cn23)cn1`
> 5.00

###

Biological target: PI3K β (p110β/p85α) (Homo sapiens)
Construct: purchased Upstate / Millipore Corporation
Experiment: PI 3-Kinase (human) HTRF assay, PI3K β
Assay type: biochemical
Conditions: read-out: PI3K β IC50
pIC50: −log10 of the molar value.
Reported values of pIC50 for individual entries

[[record]]
molecule = "Nc1nc2cc(-c3ccc4ncc(C(=O)N5CCOCC5)n4c3)ccc2s1 [Compound 126]"
measuredquantity = "pIC50"
measuredvalue = "> 5.00"

[[record]]
molecule = "Nc1nc2cccc(-c3ccc4ncc(C(=O)N5CCOCC5)n4c3)c2s1 [Compound 485]"
measuredquantity = "pIC50"
measuredvalue = "< 5.00"

[[record]]
molecule = "CN1CCN(CCNc2cnc3ccc(-c4ccc5oc(N)nc5c4)cc3n2)CC1 [Compound 275]"
measuredquantity = "pIC50"
measuredvalue = "> 6.00"

[[record]]
molecule = "Nc1nc2cc(-c3ccc4ncc(N5CCC(n6ccnc6)CC5)nc4c3)ccc2o1 [Compound 345]"
measuredquantity = "pIC50"
measuredvalue = "> 6.00"

[[record]]
molecule = "Nc1nc2cc(-c3ccc4ncc(C(=O)N5CC[C@H](F)C5)n4c3)ccc2o1 [Compound 476]"
measuredquantity = "pIC50"
measuredvalue = "< 5.00"


Bench note: what pIC50 did CC(=O)n1nc(N)c2ccc(-c3ccc4oc(N)nc4c3)cc21 [Compound 426] show?
< 5.00

Form field: reported pIC50 of Nc1nc2cc(-c3ccc4ncc(C(=O)N5CC6CCC(C5)O6)n4c3)ccc2o1 [Compound 504]
> 5.00

Can you look up the measured pIC50 of Cn1cc(-c2cnc3ccc(-c4ccc5oc(N)nc5c4)cc3n2)cn1 [Compound 94] for me?
> 6.00

For the molecule Cc1c(-c2ccc3oc(N)nc3c2)ccc2ncc(C(=O)N3CCOCC3)n12 [Compound 349] , what pIC50 is on record?
< 5.00
